# testSystem: PRMT1 (Homo sapiens)
# Construct: host or cells: RKO cells
# assaySummary: RKO methylation assay, In Cell Western (ICW) for mono-methyl arginine and DNA content
# Type: cell-based
# experimentalConditions: RKO cells, 72 hours, mono-methyl arginine signal normalised to DRAQ5, percent activation
Note to self: values exactly at 50 nM are label 1. So PRMT1 RGG ICW EC30 at or above 50 nM is label 1, below is label 0.

Take a look at these entries with their results.
CNCCN(C)Cc1c[nH]nc1C1CCC(COCC(C)C)(COCC(C)C)CC1: label 1
CCC1(CC)CC2(CCC(c3n[nH]cc3CN(C)CCNC)CC2)N(C)C1=O (centres unmarked): label 1
CNCCN(C)Cc1c[nH]nc1C1C[C@@H](C(=O)N(C)CC(C)C)C(C)(C)[C@H](C(=O)N(C)CC(C)C)C1 (some centres unmarked): label 1
CNCCN(C)Cc1c[nH]nc1C1CCC2(CCC(OC)CC2)CC1 (centres unmarked): label 0
CCC1(CC)C[C@]2(CC[C@@H](c3n[nH]cc3CN(C)CCNC)CC2)NC1=O: label 1
CNCCN(C)Cc1scnc1[C@H]1CC[C@]2(CC1)CC(C)(C)CO2: label 1

Prompt: Is the recorded value of PRMT1 RGG ICW EC30 equal to or greater than 50 nM for this molecule? CNCCN(C)Cc1n[nH]cc1[C@H]1CC[C@@]2(CC1)CC(C)(C)CO2
Response: label 0

----------
# testSystem: full-length human PRMT1 isoform 1 (GST-tagged) (Homo sapiens)
# Construct: GST-tagged PRMT1 was eluted with 50 mM Tris, 2 mM glutathione, pH 7.8, dialysed in buffer A and concentrated
# Sequence (Q99873 with tags, fused parts or gaps): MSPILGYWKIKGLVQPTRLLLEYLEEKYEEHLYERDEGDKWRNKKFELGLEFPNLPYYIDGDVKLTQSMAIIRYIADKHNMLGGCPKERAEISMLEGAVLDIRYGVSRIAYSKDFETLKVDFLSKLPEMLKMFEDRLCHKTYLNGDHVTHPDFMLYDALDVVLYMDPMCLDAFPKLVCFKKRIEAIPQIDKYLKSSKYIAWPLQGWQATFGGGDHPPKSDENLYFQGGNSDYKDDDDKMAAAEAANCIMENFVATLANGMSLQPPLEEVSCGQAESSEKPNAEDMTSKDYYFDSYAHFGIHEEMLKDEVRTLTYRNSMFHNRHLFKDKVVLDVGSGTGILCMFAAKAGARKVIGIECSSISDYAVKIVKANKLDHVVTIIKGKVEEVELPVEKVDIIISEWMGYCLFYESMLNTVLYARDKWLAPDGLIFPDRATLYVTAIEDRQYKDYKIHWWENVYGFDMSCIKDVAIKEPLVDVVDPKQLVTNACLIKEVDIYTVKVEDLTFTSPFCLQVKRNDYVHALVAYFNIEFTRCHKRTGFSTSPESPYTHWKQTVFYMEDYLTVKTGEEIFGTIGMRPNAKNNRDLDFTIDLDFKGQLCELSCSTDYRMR
# assaySummary: PRMT1 biochemical assay (3H-SAM Flashplate, histone H4 36-50 peptide)
# experimentalConditions: 0.5 nM PRMT1, 30 min preincubation, 20 nM peptide
Listed here: items and their measured IC50.
Field: numeric (nM). Do not append units.

Prompt: Complete the entry with IC50 for CNCCN(C)Cc1nn(C)nc1C1CCC2(CC1)CC(C)(C)CO2 (stereo not drawn)
Response: 50.1

Prompt: Complete the entry with IC50 for CNCCN(C)Cc1c[nH]nc1[C@H]1CC[C@@]2(CC1)COC(C)(C)C2
Response: 14.3

Prompt: Complete the entry with IC50 for CNCCN(C)Cc1nn[nH]c1[C@H]1CC[C@@]2(CC1)CC(C)(C)CO2
Response: 11.5

Prompt: Complete the entry with IC50 for CNCCN(C)Cc1nn(C)cc1[C@H]1CC[C@@]2(CC1)CC(C)(C)CO2
Response: 22.8

Prompt: Complete the entry with IC50 for CNCCN(C)Cc1ccnn1[C@H]1CC[C@@]2(CC1)CC(C)(C)CO2
Response: 19.3

Prompt: Complete the entry with IC50 for CCCOCC1(COCCC)CCC(c2n[nH]cc2CN(C)CCNC)CC1
Response: 7.93

Prompt: Complete the entry with IC50 for CNCCN(C)Cc1c(Cl)ncn1[C@H]1CC[C@]2(CC1)CC(C)(C)CO2
Response: 318

Prompt: Complete the entry with IC50 for CCC1(CC)C[C@]2(CC[C@@H](c3n[nH]cc3CN(C)CCNC)CC2)NC1=O
Response: 35.3

Prompt: Complete the entry with IC50 for CNCCN(C)Cc1c[nH]nc1C1=CCC(COCC(F)(F)F)CC1 (stereo not drawn)
Response: 11.2

----------
# testSystem: full-length human PRMT1 isoform 1 (GST-tagged) (Homo sapiens)
# Construct: GST-tagged PRMT1 was eluted with 50 mM Tris, 2 mM glutathione, pH 7.8, dialysed in buffer A and concentrated
# assaySummary: PRMT1 biochemical assay (3H-SAM Flashplate, histone H4 36-50 peptide)
# experimentalConditions: 0.5 nM PRMT1, 30 min preincubation, 20 nM peptide
Structures can show the parent of a compound that is named as a salt.
endpointName: IC50 (µM)
Field: numeric (µM). Do not append units.

CNCCN(C)Cc1c(C)[nH]nc1[C@H]1CC[C@@]2(CC1)CC(C)(C)CO2: 0.0258
CCOCC1(COCC)CC=C(c2n[nH]cc2CN(C)CCNC)CC1: 0.0149
CNCCN(C)Cc1nc(C)sc1[C@H]1CC[C@@]2(CC1)CC(C)(C)CO2: 0.0229
CNCCN(C)Cc1nnc(C)n1[C@H]1CC[C@@]2(CC1)CC(C)(C)CO2: 5.1
CNCCN(C)Cc1nn(C)cc1[C@H]1CC[C@]2(CC1)CC(C)(C)CO2: 0.0372
CNCCN(C)Cc1c[nH]nc1C1CCC(C)(C)[C@H](OCC(C)C)C1 (some centres unmarked): 0.011

Now, please, on to the next molecule.
Prompt: Complete the entry with IC50 for CNCCN(C)Cc1c[nH]nc1C1CCC(OCCCOC)C2(CCCC2)C1 (mixture of isomers) [compound 19, dihydrochloride]
Response: 0.0111

----------
# testSystem: full-length human PRMT1 isoform 1 (GST-tagged) (Homo sapiens)
# Construct: GST-tagged PRMT1 was eluted with 50 mM Tris, 2 mM glutathione, pH 7.8, dialysed in buffer A and concentrated
# assaySummary: PRMT1 biochemical assay (3H-SAM Flashplate, histone H4 36-50 peptide)
# experimentalConditions: 0.5 nM PRMT1, 30 min preincubation, 20 nM peptide
# Source text: S-adenosylmethionine (SAM), S-adenosylhomocysteine (SAH), bicine, Tween20, dimethylsulfoxide (DMSO), bovine skin gelatin (BSG), and Tris(2-carboxyethyl)phosphine hydrochloride solution (TCEP) were purchased from Sigma-Aldrich at the highest level of purity possible. ^3H-SAM was purchase from American Radiolabeled Chemicals with a specific activity of 80 Ci/mmol. 384-well streptavidin Flashplates were purchased from PerkinElmer. […]
endpointName: pIC50
// returns pIC50 (minus log10 of molar concentration), number only

Example cases with answers are listed next.
Cc1[nH]nc([C@H]2CC[C@@]3(CC2)CC(C)(C)CO3)c1CN(C)CCN [compound 51]: 7.92
CCC1(CC)CC2(CCC(c3n[nH]cc3CN(C)CCNC)CC2)N(C)C1=O (stereo not shown) [compound 22]: 7.88
CN(CCN)Cc1cn(C)nc1[C@H]1CC[C@]2(CC1)CC(C)(C)CO2 [compound 56]: 7.51

Now, please, on to the next compound.
Prompt: # assay system full-length human PRMT1 isoform 1 (GST-tagged) (Homo sapiens): give pIC50 of CNCCN(C)Cc1c[nH]nc1[C@@H]1CC[C@H](OCCCOC)C2(CCCC2)C1 (racemic) [compound 27]
Response: 8.18

----------
Listed here: items and their measured IC50.
# testSystem: full-length human PRMT1 isoform 1 (GST-tagged) (Homo sapiens)
# Construct: GST-tagged PRMT1 was eluted with 50 mM Tris, 2 mM glutathione, pH 7.8, dialysed in buffer A and concentrated
# assaySummary: PRMT1 biochemical assay (3H-SAM Flashplate, histone H4 36-50 peptide)
# experimentalConditions: 0.5 nM PRMT1, 30 min preincubation, 20 nM peptide
Field: numeric (nM). Do not append units.

CNCCN(C)Cc1c[nH]nc1C1CCC(COCC2CC2)(COCC2CC2)CC1: 4.33
CNCCN(C)Cc1c[nH]nc1C1CCC(COCCC2CCOCC2)(COCCC2CCOCC2)CC1: 20.7
CNCCN(C)Cc1scnc1[C@H]1CC[C@]2(CC1)CC(C)(C)CO2: 14

Now, please, on to the next compound.
Prompt: # assay system full-length human PRMT1 isoform 1 (GST-tagged) (Homo sapiens): give IC50 of CNCCN(C)Cc1sc(C)nc1[C@H]1CC[C@]2(CC1)CC(C)(C)CO2
Response: 33.5

----------
# testSystem: PRMT1 (Homo sapiens, UniProt Q99873)
# Construct: host or cells: RKO cells
# Sequence (Q99873 whole entry): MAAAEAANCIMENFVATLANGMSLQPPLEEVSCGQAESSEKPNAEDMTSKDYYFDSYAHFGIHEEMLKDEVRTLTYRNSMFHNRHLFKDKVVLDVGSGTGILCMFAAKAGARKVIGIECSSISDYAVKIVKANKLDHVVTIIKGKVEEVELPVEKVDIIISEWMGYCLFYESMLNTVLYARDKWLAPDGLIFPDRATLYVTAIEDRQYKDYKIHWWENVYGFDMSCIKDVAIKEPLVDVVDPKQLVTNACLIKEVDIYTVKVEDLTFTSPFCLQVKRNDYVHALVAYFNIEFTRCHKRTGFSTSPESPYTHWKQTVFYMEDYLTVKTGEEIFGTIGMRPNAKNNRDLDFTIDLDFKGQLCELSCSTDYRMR
# assaySummary: RKO methylation assay, In Cell Western (ICW) for mono-methyl arginine and DNA content
# Assay type: cell-based
# experimentalConditions: RKO cells, 72 hours, mono-methyl arginine signal normalised to DRAQ5, percent activation
endpointName: PRMT1 RGG ICW EC30 (nM)
Field: numeric (nM). Do not append units.

CNCCN(C)Cc1c[nH]nc1C1CCC(COCCC2CCOCC2)(COCCC2CCOCC2)CC1 [compound 40]: 458.5
CNCCN(C)Cc1n[nH]cc1[C@H]1CC[C@]2(CC1)CC(C)(C)CO2 [compound 116]: 154.5
CNCCN(C)Cc1nn(C)cc1[C@H]1CC[C@]2(CC1)CC(C)(C)CO2 [compound 103]: 597.4
CNCCN(C)Cc1nn(C)nc1[C@H]1CC[C@@]2(CC1)CC(C)(C)CO2 [compound 64]: 119
CNCCN(C)Cc1c[nH]nc1C1=CCC(CF)(CF)CC1 [compound 15]: 361.1
CNCCN(C)Cc1c[nH]nc1C1=CCC2(CC1)CC(C)(C)CO2 (stereo not drawn) [compound 46]: 185.1
CNCCN(C)Cc1nc(C)sc1[C@H]1CC[C@@]2(CC1)CC(C)(C)CO2 [compound 77]: 53.11
CCOCC1(COCC)CCC(c2n[nH]cc2CN(C)CCN(C)C)CC1 [compound 121]: 117.5

Prompt: Complete the entry with PRMT1 RGG ICW EC30 for CCCOCC1(COCCC)CCC(c2n[nH]cc2CN(C)CCNC)CC1 [compound 36]
Response: 66.17

Prompt: Complete the entry with PRMT1 RGG ICW EC30 for CNCCN(C)Cc1c[nH]nc1[C@H]1CC[C@]2(CCCOC2)CC1 [compound 4]
Response: 18.34
